Experimental Protocol: Plasma concentration in Swiss mouse at 8 mg/kg, sc administered as solution measured 1 hr post dose
Assay type: ADME, organism-based
Set-up: dose 8 mg/kg, route subcutaneous
Attribute Measured: concentration at 1 h (nM)
Express your answer in nM, writing the number without its unit.

Could you share which concentration at 1 h value was measured for C[N+]1=C2C=C(NCCc3ccc(O)cc3)C(=O)c3[nH]cc(c32)CC1.O=C([O-])C(F)(F)F [MAKALUVAMINE J TFA SALT] ?
1700

###

Experimental Protocol: Intrinsic clearance in human liver microsomes assessed as per mg of protein at 1 uM after 60 mins
Type: ADME, Microsome
Condition Summary: read-out: CLH
Attribute Measured: microsomal CLint at 1 µM (µL/min/mg)
Express your answer in µL/min/mg, writing the number without its unit.

Could you share which microsomal CLint at 1 µM value was measured for Cn1cc2c3c1C(=O)C(N/C=C/c1ccc(O)cc1)=CC3=[N+](C)CC2.O=C([O-])C(F)(F)F ?
197
